- System: T-cell
- method: Antiproliferative activity against concanavalin A-stimulated C57BL/6 mouse T cells measured after 48 hrs by CCK8 assay
- Type: functional, cell-based
- run.conditions: C57BL/6, T-cell
Task for the reader: assign each of the following molecules its reported pIC50.
Keep in mind that pIC50 stands for -log10 of concentration in molar terms.

Asked: May I ask what pIC50 has been recorded for C=C1C(=O)O[C@H]2[C@H]1C[C@@H](O)/C(C)=C/CC[C@@]1(C)O[C@@H]21 ?
Given back: 5.46

Asked: May I ask what pIC50 has been recorded for C=C1C(=O)O[C@H]2[C@H]1CC/C(CNS(=O)(=O)CC)=C\CC[C@@]1(C)O[C@@H]21 ?
Given back: 5.53

Asked: May I ask what pIC50 has been recorded for C=C1C(=O)O[C@H]2[C@H]1CC/C(COC(F)(F)F)=C\CC[C@@]1(C)O[C@@H]21 ?
Given back: 6.37

Asked: May I ask what pIC50 has been recorded for C=C1C(=O)O[C@H]2[C@H]1CC/C(CNS(=O)(=O)C(F)(F)F)=C\CC[C@@]1(C)O[C@@H]21 ?
Given back: 5.53

Asked: May I ask what pIC50 has been recorded for C=C1C(=O)O[C@H]2[C@H]1CC/C(CNS(=O)(=O)c1ccc([N+](=O)[O-])cc1)=C\CC[C@@]1(C)O[C@@H]21 ?
Given back: 5.88

Asked: May I ask what pIC50 has been recorded for C=C1C(=O)O[C@H]2[C@H]1C[C@@H](Br)/C(C)=C/CC[C@@]1(C)O[C@@H]21 ?
Given back: 5.42

Asked: May I ask what pIC50 has been recorded for C=C1C(=O)O[C@H]2[C@H]1CC/C(CNS(=O)(=O)c1ccc(F)cc1)=C\CC[C@@]1(C)O[C@@H]21 ?
Given back: 5.82

Asked: May I ask what pIC50 has been recorded for C=C1C(=O)O[C@H]2[C@H]1CC/C(COC(=O)N(C)C)=C\CC[C@@]1(C)O[C@@H]21 ?
Given back: 5.79

Asked: May I ask what pIC50 has been recorded for C=C1C(=O)O[C@H]2[C@H]1CC/C(COC(=O)N1CCN(CC)CC1)=C\CC[C@@]1(C)O[C@@H]21 ?
Given back: 5.63

Asked: May I ask what pIC50 has been recorded for C=C1C(=O)O[C@H]2[C@H]1CC/C(COC(=O)N1CCCC1)=C\CC[C@@]1(C)O[C@@H]21 ?
Given back: 5.75
